Where do the numbers come from? From patent US20260274892A1.

Tested on: Escherichia coli ATCC 25922
Test: Minimum inhibitory concentration (MIC), CLSI broth micro-dilution, E. coli
Format: cell-based
Settings: Escherichia coli, ATCC25922, 22 h, Table 7, cation adjusted Mueller Hinton Broth + 0.002% Tween-80, 35° C.
Experimental: In vitro antimicrobial activity of each compound was determined by measuring minimal inhibitor concentrations (MICs) using the broth micro-dilution technique as approved by the Clinical and Laboratory Standards Institute (CLSI) (Methods for Dilution Antimicrobial Susceptibility Tests for Bacteria that Grow Aerobically; Approved Standard-Eighth Edition. CLSI document M07-A8. Wayne, PA: Clinical and Laboratroy Standards; 2009). […]

{"compound": "Cc1nc(-c2ccc(C(C)(C)C)cc2)nc(C)c1C(=O)N[C@@H](CCN)C(=O)N(C)[C@@H]1C(=O)N[C@@H](C)C(=O)N[C@H](C(=O)NCC#N)Cc2ccc(O)c(c2)-c2cc1ccc2OCCNCCN (racemic)", "target or system": "Escherichia coli ATCC 25922", "unit abbrev": "µM", "MIC": 0.5}
{"compound": "Cc1nc(-c2ccc(C(C)(C)C)cc2)nc(C)c1C(=O)N[C@@H](CCN)C(=O)N(C)[C@@H]1C(=O)N[C@@H](C)C(=O)N[C@H](C(=O)NCC#N)Cc2cc(F)c(O)c(c2)-c2cc1ccc2OCCN", "target or system": "Escherichia coli ATCC 25922", "unit abbrev": "µM", "MIC": 0.25}
{"compound": "Cc1nc(-c2ccc(C(C)(C)C)cc2)nc(C)c1C(=O)N[C@@H](CNS(N)(=O)=O)C(=O)N(C)[C@@H]1C(=O)N[C@@H](C)C(=O)N[C@H](C(=O)NCC#N)Cc2ccc(OC[C@@H](O)CN)c(c2)-c2cc1ccc2OC[C@@H](O)CN (racemic)", "target or system": "Escherichia coli ATCC 25922", "unit abbrev": "µM", "MIC": 0.25}
